- target.of.assay: CK2β^1–193-pAzF coupled to fluorescein (human) (UniProt P67870)
- experiment.summary: MST; B2 titrated (7.6 nM to 125 or 250 µM) to 100 nM fluorophore-labelled CK2α-DBCO-Sulfo-Cy5 or CK2β^1-193-Flu; 50 mM Tris/HCl pH 7.5, 25 mM NaCl, 20 mM MgCl2, Tween-20, DMSO; 37 °C, MST power 60%; Monolith NT.115; three independent measurements
pKd: −log10 of the molar value.
measurement.label: pKd

State, in one line, measured pKd of DCRGLIVMIKLH [peptide B2 (free synthetic peptide)]
< 4.00
